Could you please report measured Ki for the items listed next?
A number alone suffices; assume pM.

Please tell me: Ki of CC(Cc1ccc(C(=O)Oc2ccc(C(=N)N)cc2)o1)C(=O)O[C@H](CC(=O)O)C(=O)O (stereo partly drawn) , system Enteropeptidase (Homo sapiens)? 680

Please tell me: Ki of CC(Cc1ncc(C(=O)Oc2ccc(C(=N)N)cc2F)s1)C(=O)N[C@@H](CC(=O)O)C(=O)O (stereo partly drawn) , system Enteropeptidase (Homo sapiens)? 3700

Please tell me: Ki of N=C(N)c1ccc(OC(=O)c2ccc(CCC(=O)N(CCC(=O)O)CC(=O)O)o2)cc1 , system Enteropeptidase (Homo sapiens)? 600
